# TARGET UNDER TEST: T1, wild-type 14-3-3γ-nLuc (His6-14-3-3γ-nLuc) (human, UniProt P61981 2-247)
# T1 chain: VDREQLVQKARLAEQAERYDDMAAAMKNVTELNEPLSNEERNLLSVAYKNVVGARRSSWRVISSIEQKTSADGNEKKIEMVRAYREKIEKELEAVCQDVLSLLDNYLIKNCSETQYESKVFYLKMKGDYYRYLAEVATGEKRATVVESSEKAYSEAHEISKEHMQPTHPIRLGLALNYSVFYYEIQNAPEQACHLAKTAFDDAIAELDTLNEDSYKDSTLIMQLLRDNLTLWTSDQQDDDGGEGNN
# PROTOCOL TEXT: nafamostat 25 uM
Primed or numbered codes have the meaning given here. Where no end group is shown, it is not given here. [ ]: non-standard residue; d: D form. FITC′ = fluorescein isothiocyanate label at the N-terminus; pS = N[C@@H](COP(=O)(O)O)C(=O)O
MEASURE NAME: Kd (µM)

[A] {FITC′}-MPTPDATTPQAKGFRRAV[pS]ELDAKQAEAIMSPRFIGRRQSLIE (also called phosphopeptide derived from tyrosine hydroxylase (TH); source: synthetic peptide (AbClonal)) [FITC-pTH]
[B] {FITC′}-QRHSN[pS]LGPIFDGSGGGSGIKARAS[pS]SPVILVGTHLD (leucine-rich repeat kinase 2 (LRRK2), human; also called FITC-LRRK2; source: synthetic peptide (AbClonal)) [FITC-ppLRRK2]
Recorded Kd values differ for A and B ; which one is higher? Answer = label.
A
